# TARGET OR TEST SYSTEM: T1, FcRL6, overexpressed on 3T3 cells (UniProt Q6DN72 20-434, limits assumed)
# T1 construct: whole, on cells
# T1 sequence (looked up): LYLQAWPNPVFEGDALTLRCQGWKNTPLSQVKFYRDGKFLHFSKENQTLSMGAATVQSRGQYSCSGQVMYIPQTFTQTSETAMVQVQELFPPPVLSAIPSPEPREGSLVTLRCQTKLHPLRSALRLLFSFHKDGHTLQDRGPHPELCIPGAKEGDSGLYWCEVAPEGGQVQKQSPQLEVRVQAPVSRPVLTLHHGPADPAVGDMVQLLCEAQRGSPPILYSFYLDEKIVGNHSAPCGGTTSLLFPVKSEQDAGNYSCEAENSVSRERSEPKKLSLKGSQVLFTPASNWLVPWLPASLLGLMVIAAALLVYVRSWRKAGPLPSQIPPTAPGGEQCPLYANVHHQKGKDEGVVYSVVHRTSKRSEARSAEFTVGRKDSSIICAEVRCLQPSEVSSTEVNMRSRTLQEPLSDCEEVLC
# EXPERIMENTAL PROTOCOL: phage clone on 3T3-FcRL6 cells
MEASURE NAME: binding result

{"BINDER": "ET200-105 (scFv, screened as phage clone; entry is VL-linker-VH-His tag-HA tag) scFv: SYVLTQPPSVSVSPGQTASITCSGDRLTNKYVSWYQQKPGQSPVLVIYEDAKRPSGIPARFSGSNSGNTATLTISGTQAMDESEYYCQAWDSSVVVFGGGTKLTVLGSRGGGGSGGGGSGGGGSLEMAEVQLVESGGGLVQPGRSLRLSCAASGFTFDDYAMHWVRQAPGKGLEWVSGISWNSGSIGYADSVKGRFTISRDNAKNSLYLQMNSLRDEDTALYYCAKDRGGGVIVKDAFDIWGQGTMVTVSSTSGQAGQHHHHHHGAYPYDVPDYAS", "RESULT": "no binding"}
{"BINDER": "ET200-104 (scFv, screened as phage clone; entry is VL-linker-VH-His tag-HA tag) scFv: NFMLTQPHSVSESPGKTVTISCTRSSGSIASNYVQWYQQRPGSAPTTVIYEDNQRPSGVPDRFSGSIDSSSNSASLTISGLKTEDEADYYCQSYDSSNVVFGGGTKVTVLGSRGGGGSGGGGSGGGGSLEMAEVQLVESGGGLVQPGGSLRLSCAASGFTFSSYEMNWVRQAPGKGLEWVSYISSSGSTIYYADSVKGRFTISRDNAKNSLYLQMNSLRAEDTAVYYCARWDYGMDVWGQGTTVTVSSTSGQAGQHHHHHHGAYPYDVPDYAS", "RESULT": "no binding"}

Source listed as patent US20210388081A1.
